target: COPS5 (UniProt Q92905); experiment: log2 ratio of Biotin-Ahx-Ub-VS probe labelling (fragment/DMSO); higher = less target engagement (more negative = stronger competition), active = hit call of the paper (q ≤ 0.05, log2 ratio ≤ -1); settings: compound concentration: 200 uM; treatment time: 3 h
Sequence (Q92905 whole entry, looked up, the tested form may be a part): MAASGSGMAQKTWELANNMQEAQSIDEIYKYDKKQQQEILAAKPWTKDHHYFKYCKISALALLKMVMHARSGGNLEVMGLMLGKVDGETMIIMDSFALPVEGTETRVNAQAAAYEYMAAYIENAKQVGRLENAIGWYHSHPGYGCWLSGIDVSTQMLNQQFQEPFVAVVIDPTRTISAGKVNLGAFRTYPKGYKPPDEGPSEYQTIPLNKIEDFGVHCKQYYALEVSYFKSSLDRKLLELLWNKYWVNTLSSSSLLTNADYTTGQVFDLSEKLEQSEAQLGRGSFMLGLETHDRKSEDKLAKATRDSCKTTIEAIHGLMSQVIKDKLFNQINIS
# cutoff 0.04 applies to log2 ratio of Biotin-Ahx-Ub-VS probe labelling; >= gives satisfied, < gives not satisfied

{"columns": ["molecule", "label.class"],
 "data": [
  ["CC(NC(=O)CCl)c1csc(-c2ccccc2)n1.Cl (stereo not drawn)", "not satisfied"],
  ["Cc1ccc(CNC(=O)CCl)nc1C.Cl", "satisfied"],
  ["Cc1cccc(N2CCC(NC(=O)CCl)C2=O)c1 (stereo not drawn)", "not satisfied"],
  ["Cl.O=C(CN1CCN(C(=O)CCl)CC1)Nc1ccc(F)cc1", "not satisfied"],
  ["O=C(CCl)N1CCCC1c1ccsc1 (stereo not drawn)", "not satisfied"],
  ["CCC1c2ccsc2CCN1C(=O)CCl (stereo not drawn)", "not satisfied"],
  ["O=C(CCl)N(C1=CCCCC1)C1CC1", "not satisfied"],
  ["Cc1ncsc1CCNC(=O)CCl", "satisfied"],
  ["CC1Cc2ccccc2N1C(=O)CCl (stereo not drawn)", "satisfied"],
  ["CN(CCc1ncc(Br)cn1)C(=O)CCl.Cl", "satisfied"],
  ["Cl.Cn1ncc2c1CC(NC(=O)CCl)CC2 (stereo not drawn)", "not satisfied"],
  ["O=C(CCl)Nc1ccc(N2CCCC2=O)cc1", "satisfied"],
  ["CCN(C(=O)CCl)C1CCCCC1", "satisfied"]
]}

====

molecular target: USP16 (UniProt Q9Y5T5); assay: log2 ratio of Biotin-Ahx-Ub-VS probe labelling (fragment/DMSO); higher = less target engagement (more negative = stronger competition), active = hit call of the paper (q ≤ 0.05, log2 ratio ≤ -1); details: compound concentration: 200 uM; treatment time: 3 h
Sequence (Q9Y5T5 whole entry, looked up, the tested form may be a part): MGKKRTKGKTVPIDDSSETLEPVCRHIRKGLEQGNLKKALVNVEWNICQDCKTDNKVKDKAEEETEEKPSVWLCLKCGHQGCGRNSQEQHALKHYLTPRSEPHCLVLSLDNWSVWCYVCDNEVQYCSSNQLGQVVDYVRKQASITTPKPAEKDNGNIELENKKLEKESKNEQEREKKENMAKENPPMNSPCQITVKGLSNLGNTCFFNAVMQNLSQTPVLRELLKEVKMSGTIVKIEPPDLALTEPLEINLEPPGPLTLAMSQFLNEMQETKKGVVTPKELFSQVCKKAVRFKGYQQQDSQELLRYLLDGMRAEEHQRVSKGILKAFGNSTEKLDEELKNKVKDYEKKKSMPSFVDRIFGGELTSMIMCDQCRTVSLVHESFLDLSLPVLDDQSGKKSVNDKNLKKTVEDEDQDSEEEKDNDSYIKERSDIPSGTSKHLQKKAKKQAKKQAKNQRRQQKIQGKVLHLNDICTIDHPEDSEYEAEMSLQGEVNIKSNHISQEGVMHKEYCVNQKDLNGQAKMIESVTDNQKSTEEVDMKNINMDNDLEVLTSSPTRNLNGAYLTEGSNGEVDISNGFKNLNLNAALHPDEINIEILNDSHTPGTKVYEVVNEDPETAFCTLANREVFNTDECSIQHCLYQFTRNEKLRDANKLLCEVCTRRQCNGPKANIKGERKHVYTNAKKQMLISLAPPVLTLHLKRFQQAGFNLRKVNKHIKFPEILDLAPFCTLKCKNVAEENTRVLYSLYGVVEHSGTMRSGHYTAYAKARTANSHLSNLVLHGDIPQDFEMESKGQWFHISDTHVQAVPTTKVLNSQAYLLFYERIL
observed.property: log2 ratio of Biotin-Ahx-Ub-VS probe labelling

{"columns": ["record.smiles", "reading"],
 "data": [
  ["O=C(CCl)N1CC=C(c2c[nH]c3ccccc23)CC1", 0.156],
  ["Cc1conc1C1CN(C(=O)CCl)C1", -0.0913],
  ["Cc1nc(-c2cccc(NC(=O)CCl)c2)cs1", -0.418]
]}

====

molecular target: USP47 (UniProt Q96K76); test: log2 ratio of Biotin-Ahx-Ub-VS probe labelling (fragment/DMSO); higher = less target engagement (more negative = stronger competition), active = hit call of the paper (q ≤ 0.05, log2 ratio ≤ -1); conditions: compound concentration: 200 uM; treatment time: 3 h
Sequence (Q96K76 whole entry, the tested form may be a part): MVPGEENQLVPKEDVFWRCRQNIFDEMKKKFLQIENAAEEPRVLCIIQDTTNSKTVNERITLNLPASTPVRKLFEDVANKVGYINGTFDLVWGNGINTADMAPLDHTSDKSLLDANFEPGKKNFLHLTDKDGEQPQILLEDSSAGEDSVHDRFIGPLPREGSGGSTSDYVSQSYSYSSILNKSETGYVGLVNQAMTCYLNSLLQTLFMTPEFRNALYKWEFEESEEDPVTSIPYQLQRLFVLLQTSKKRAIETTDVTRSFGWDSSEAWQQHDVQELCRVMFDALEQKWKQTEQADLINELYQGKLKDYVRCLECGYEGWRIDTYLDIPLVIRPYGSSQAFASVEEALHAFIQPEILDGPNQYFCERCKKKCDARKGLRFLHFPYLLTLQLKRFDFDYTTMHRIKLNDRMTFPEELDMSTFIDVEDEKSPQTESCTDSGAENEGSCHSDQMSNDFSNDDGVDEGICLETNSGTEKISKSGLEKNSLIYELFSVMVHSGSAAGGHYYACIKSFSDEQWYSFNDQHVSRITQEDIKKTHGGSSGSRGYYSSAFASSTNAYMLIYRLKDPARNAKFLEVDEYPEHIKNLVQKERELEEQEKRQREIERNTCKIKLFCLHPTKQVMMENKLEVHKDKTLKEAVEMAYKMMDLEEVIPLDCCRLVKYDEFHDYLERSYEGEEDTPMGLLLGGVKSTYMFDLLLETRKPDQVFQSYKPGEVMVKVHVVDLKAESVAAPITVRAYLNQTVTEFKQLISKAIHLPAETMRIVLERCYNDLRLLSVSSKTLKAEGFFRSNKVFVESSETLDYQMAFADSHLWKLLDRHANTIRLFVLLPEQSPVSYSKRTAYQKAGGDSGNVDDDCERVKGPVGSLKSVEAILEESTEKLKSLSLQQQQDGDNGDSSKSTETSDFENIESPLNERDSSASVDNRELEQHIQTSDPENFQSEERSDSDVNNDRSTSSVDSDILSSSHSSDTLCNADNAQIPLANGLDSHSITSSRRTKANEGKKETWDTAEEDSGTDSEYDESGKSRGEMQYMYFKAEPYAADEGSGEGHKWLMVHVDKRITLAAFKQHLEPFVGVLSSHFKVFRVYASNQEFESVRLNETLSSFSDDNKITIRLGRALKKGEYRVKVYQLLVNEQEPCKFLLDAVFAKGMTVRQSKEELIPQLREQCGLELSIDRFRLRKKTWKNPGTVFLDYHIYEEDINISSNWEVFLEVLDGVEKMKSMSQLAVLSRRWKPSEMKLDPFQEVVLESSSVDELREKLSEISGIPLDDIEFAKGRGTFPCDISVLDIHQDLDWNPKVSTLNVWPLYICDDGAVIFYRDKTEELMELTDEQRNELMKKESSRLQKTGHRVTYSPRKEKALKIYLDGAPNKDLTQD
// bucketize log2 ratio of Biotin-Ahx-Ub-VS probe labelling: bin 1 = under -0.4, bin 2 = from -0.4 up to -0.02, bin 3 = -0.02 and over

{"columns": ["compound", "label.class"],
 "data": [
  ["CC(NC(=O)CCl)c1cnn(C2CC2)c1 (stereo not drawn)", "bin 1"],
  ["O=C(CCl)N1CCc2[nH]c3ccccc3c2C1", "bin 1"],
  ["CCc1c[nH]c(CNC(=O)CCl)n1.Cl", "bin 2"],
  ["Cc1cccc(NC(=O)[C@@H]2CCCN2C(=O)CCl)n1", "bin 1"],
  ["O=C(CCl)N1CC2(CCOCC2)C1", "bin 3"],
  ["Cc1cc(C2CCCN2C(=O)CCl)nn1C.Cl (stereo not drawn)", "bin 2"],
  ["Cl.O=C(CCl)NCCc1ncc(F)cc1F", "bin 3"],
  ["Cc1ccc(C)c(Oc2ccc(CNC(=O)CCl)cn2)c1.Cl", "bin 1"],
  ["CCN1C(=O)C2CN(C(=O)CCl)CCN2C1=O (stereo not drawn)", "bin 3"],
  ["CC1(NC(=O)CCl)CCS(=O)(=O)C1 (stereo not drawn)", "bin 2"],
  ["O=C(CCl)Nc1cccc(C(=O)N2CCSCC2)c1", "bin 3"],
  ["O=C(CCl)NC1CCOc2ccccc21 (stereo not drawn)", "bin 2"]
]}

====

molecular target: USP39 (UniProt Q53GS9); assay: log2 ratio of Biotin-Ahx-Ub-VS probe labelling (fragment/DMSO); higher = less target engagement (more negative = stronger competition), active = hit call of the paper (q ≤ 0.05, log2 ratio ≤ -1); conditions: compound concentration: 200 uM; treatment time: 3 h
Sequence (Q53GS9 whole entry, the tested form may be a part): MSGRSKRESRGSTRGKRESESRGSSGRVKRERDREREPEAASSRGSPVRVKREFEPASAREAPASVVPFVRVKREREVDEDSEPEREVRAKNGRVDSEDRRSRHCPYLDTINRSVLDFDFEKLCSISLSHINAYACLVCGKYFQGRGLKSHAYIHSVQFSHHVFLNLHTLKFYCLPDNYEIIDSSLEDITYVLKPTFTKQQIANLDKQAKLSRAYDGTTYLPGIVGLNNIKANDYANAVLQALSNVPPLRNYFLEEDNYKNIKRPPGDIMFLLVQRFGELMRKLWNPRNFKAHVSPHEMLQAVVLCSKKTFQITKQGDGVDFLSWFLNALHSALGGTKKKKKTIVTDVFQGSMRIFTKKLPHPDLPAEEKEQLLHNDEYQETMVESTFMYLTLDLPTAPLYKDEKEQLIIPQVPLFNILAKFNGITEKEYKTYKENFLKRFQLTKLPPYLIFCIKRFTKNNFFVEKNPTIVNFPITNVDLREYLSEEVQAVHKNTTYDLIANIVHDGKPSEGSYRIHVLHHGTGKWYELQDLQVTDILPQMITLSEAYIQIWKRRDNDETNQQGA
// reported log2 ratio of Biotin-Ahx-Ub-VS probe labelling for each item listed
observed.property: log2 ratio of Biotin-Ahx-Ub-VS probe labelling

{"columns": ["molecule", "reading"],
 "data": [
  ["O=C(CCl)NC1CCS(=O)(=O)c2ccccc21 (centres undefined)", -0.117],
  ["CN1C(=O)c2ccc(NC(=O)CCl)cc2C1=O", 0.16],
  ["Cc1ccc(CN(C)C(=O)CCl)o1", 0.287],
  ["CC(NC(=O)CCl)c1cccc2ccccc12 (centres undefined)", 0.171],
  ["COc1ccc(-c2csc(NC(=O)CCl)n2)cc1", 0.0959],
  ["O=C(CCl)N1CCC(c2noc3cc(F)ccc23)CC1", 0.43],
  ["O=C(CCl)N1CC2(CCOCC2)C1", 0.364],
  ["Cc1cccnc1NC(=O)C1CCN(C(=O)CCl)CC1.Cl", 0.0484],
  ["CC1CCc2onc(CNC(=O)CCl)c2C1 (centres undefined)", 0.358],
  ["Cc1cccc(N2CCC(NC(=O)CCl)C2=O)c1 (centres undefined)", -0.32],
  ["O=C(CCl)NC1CCC(C(F)(F)F)CC1 (centres undefined)", 0.207],
  ["O=C(CCl)Nc1ccc(Cl)c(F)c1", "4.5e-05"],
  ["O=C(CCl)N(C1CCCC1)C1CCS(=O)(=O)C1 (centres undefined)", 0.151],
  ["Cc1cccc2nc(CCNC(=O)CCl)cn12.Cl", 0.203]
]}

====

molecular target: USP16 (UniProt Q9Y5T5); assay: log2 ratio of Biotin-Ahx-Ub-VS probe labelling (fragment/DMSO); higher = less target engagement (more negative = stronger competition), active = hit call of the paper (q ≤ 0.05, log2 ratio ≤ -1); conditions: compound concentration: 200 uM; treatment time: 3 h
// reported log2 ratio of Biotin-Ahx-Ub-VS probe labelling for each item listed
observed.property: log2 ratio of Biotin-Ahx-Ub-VS probe labelling

{"columns": ["molecule", "target", "reading"],
 "data": [
  ["CC(NC(=O)CCl)c1cccc2ccccc12 (stereo not drawn)", "USP16 (UniProt Q9Y5T5)", "0.303 (inactive)"],
  ["O=C(CCl)N1CCC(O)(Cc2ccc(F)cc2)C1 (stereo not drawn)", "USP16 (UniProt Q9Y5T5)", "0.246 (inactive)"],
  ["Cc1nc(CNC(=O)CCl)c2ccccn12.Cl", "USP16 (UniProt Q9Y5T5)", "-0.0983 (inactive)"],
  ["Cc1ccc2nnc(CNC(=O)CCl)n2c1", "USP16 (UniProt Q9Y5T5)", "-0.0611 (inactive)"],
  ["CC(C)n1nccc1NC(=O)CCl", "USP16 (UniProt Q9Y5T5)", "-0.153 (inactive)"],
  ["Cc1cc(Cl)ccc1NC(=O)CCl", "USP16 (UniProt Q9Y5T5)", "-0.157 (inactive)"],
  ["Cl.O=C(CCl)NC1(c2ncccn2)CCC1", "USP16 (UniProt Q9Y5T5)", "0.0942 (inactive)"],
  ["CC(NC(=O)CCl)c1cc2n(n1)CCCC2.Cl (stereo not drawn)", "USP16 (UniProt Q9Y5T5)", "-0.211 (inactive)"],
  ["O=C(CCl)N1c2ccccc2NC(=O)C12CCCC2", "USP16 (UniProt Q9Y5T5)", "0.103 (inactive)"],
  ["Cc1nc(CN2CCCN(C(=O)CCl)CC2)no1.Cl", "USP16 (UniProt Q9Y5T5)", "-0.188 (inactive)"],
  ["Cl.O=C(CCl)N[C@H]1C[C@@H](n2cccn2)C1", "USP16 (UniProt Q9Y5T5)", "0.0253 (inactive)"],
  ["O=C(CCl)NC(Cn1ccccc1=O)c1ccccc1 (stereo not drawn)", "USP16 (UniProt Q9Y5T5)", "-0.972 (inactive)"],
  ["C/C(=C\\CNC(=O)CCl)c1cnn(C)c1.Cl", "USP16 (UniProt Q9Y5T5)", "-0.58 (inactive)"]
]}

====

target: OTUD7B (UniProt Q6GQQ9); experiment: log2 ratio of Biotin-Ahx-Ub-VS probe labelling (fragment/DMSO); higher = less target engagement (more negative = stronger competition), active = hit call of the paper (q ≤ 0.05, log2 ratio ≤ -1); conditions: compound concentration: 200 uM; treatment time: 3 h
Sequence (Q6GQQ9 whole entry, the tested form may be a part): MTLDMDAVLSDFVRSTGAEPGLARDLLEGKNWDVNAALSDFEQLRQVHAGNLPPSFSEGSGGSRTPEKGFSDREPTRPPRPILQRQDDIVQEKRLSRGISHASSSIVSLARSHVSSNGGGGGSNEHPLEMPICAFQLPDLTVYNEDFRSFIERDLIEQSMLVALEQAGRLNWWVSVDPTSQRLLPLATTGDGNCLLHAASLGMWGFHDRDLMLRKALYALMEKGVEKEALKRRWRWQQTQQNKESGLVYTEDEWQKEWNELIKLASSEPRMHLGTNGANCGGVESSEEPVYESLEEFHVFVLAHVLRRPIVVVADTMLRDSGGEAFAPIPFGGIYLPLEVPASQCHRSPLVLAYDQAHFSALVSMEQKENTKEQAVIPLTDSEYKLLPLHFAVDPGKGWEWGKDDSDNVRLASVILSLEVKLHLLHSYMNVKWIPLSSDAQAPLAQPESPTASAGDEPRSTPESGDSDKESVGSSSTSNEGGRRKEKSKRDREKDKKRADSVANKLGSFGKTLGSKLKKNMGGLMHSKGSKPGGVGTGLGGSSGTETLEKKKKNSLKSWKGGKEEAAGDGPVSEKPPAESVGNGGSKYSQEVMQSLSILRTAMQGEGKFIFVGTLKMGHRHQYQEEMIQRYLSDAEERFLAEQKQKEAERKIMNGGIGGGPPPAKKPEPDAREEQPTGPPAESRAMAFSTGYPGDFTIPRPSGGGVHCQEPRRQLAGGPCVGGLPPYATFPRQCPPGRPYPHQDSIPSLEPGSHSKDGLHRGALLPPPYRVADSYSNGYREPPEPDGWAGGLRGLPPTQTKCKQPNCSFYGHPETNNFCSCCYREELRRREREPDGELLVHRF
// bucketize log2 ratio of Biotin-Ahx-Ub-VS probe labelling: lower level (below -0.7), middle level (-0.7 to below -0.4), upper level (-0.4 or more)

{"columns": ["compound", "label.class"],
 "data": [
  ["NC(=O)C(Cc1ccccc1)NC(=O)CCl (centres undefined)", "upper level"],
  ["Cc1c(C#N)c(NC(=O)CCl)n(Cc2ccco2)c1C", "lower level"],
  ["CN(C(=O)CCl)c1nc2ccccc2s1", "upper level"],
  ["Cl.O=C(CCl)NCCc1ncc(F)cc1F", "middle level"],
  ["O=C(CCl)N1CCC(=C(F)CO)C1", "upper level"],
  ["N#Cc1ccc(CNC(=O)CCl)cc1", "lower level"],
  ["Cc1n[nH]c2c1CN(C(=O)CCl)CC2", "lower level"],
  ["O=C(CCl)N1CCc2ccccc2C(O)C1 (centres undefined)", "lower level"],
  ["O=C(CCl)N1CCC(C(O)c2ccc(F)cc2)CC1 (centres undefined)", "upper level"],
  ["COc1cc(Cl)c(C)cc1NC(=O)CCl", "upper level"],
  ["O=C(CCl)Nc1ccccc1C(F)(F)F", "middle level"],
  ["O=C(CCl)NCCc1ccc(F)cc1", "middle level"],
  ["Cc1ccc(CN(CCO)C(=O)CCl)cc1", "lower level"],
  ["Cl.Cn1c(CNC(=O)CCl)nc2cccnc21", "upper level"],
  ["CC1CN(c2ccc(NC(=O)CCl)cc2)CC(C)O1 (centres undefined)", "upper level"],
  ["O=C(CCl)N[C@H]1CCS(=O)(=O)c2ccccc21", "lower level"],
  ["O=C(CCl)Nc1ccc(N2CCCC2=O)cc1", "upper level"],
  ["CC(NC(=O)CCl)c1noc(Cc2ccccc2)n1 (centres undefined)", "lower level"],
  ["COCC1C=CCCN1C(=O)CCl (centres undefined)", "middle level"],
  ["Cc1cccn2cc(CCNC(=O)CCl)nc12.Cl", "upper level"],
  ["O=C(CCl)NC1CCC2(CC1)OCCO2", "lower level"],
  ["Cc1n[nH]c(=O)c2c(NC(=O)CCl)oc(C)c12", "upper level"],
  ["O=C(CCl)N1CCC(C(=O)N2CCCC2)CC1", "upper level"],
  ["O=C(CCl)NCC1(c2ccccc2)CC1", "lower level"],
  ["CS(=O)(=O)c1ccc(CNC(=O)CCl)cc1", "middle level"],
  ["Cc1ccc(N(C(=O)CCl)C2C=CS(=O)(=O)C2)cc1 (centres undefined)", "upper level"],
  ["Cl.O=C(CCl)NCc1cc2c(nc1O)CCCC2", "middle level"],
  ["Cc1ccc(N2CCC(NC(=O)CCl)C2=O)cc1 (centres undefined)", "lower level"],
  ["Cc1ccc(N(CCC#N)C(=O)CCl)cc1C", "lower level"]
]}

Each recorded value in this set is attributed to the supplement of paper PMC11732987.
